Just for reference, PubChem BioAssay (EPA / NIEHS) is where these values come from.

read-out: C-C motif chemokine 2 (Homo sapiens); assay: BSK_KF3CT_MCP1: BioMAP Diversity Plus: KF3CT Assay for Monocyte Chemoattractant Protein 1 (MCP1/CCL2) Biomarker Activity (AID 2283073); settings: primary human keratinocytes with fibroblasts; actives raise or lower the signal
The source made the active and inactive calls. The calls were made as follows: active = hit-call score of the fitted dose curve at least 0.9, where 1 is the maximum; inactive = score below 0.9.
Could you please pick one outcome from this set? class 1 = active, class 0 = inactive

{"columns": ["Molecule smiles", "Assigned class"],
 "data": [
  ["CCCCCCCCCCC", "class 0"],
  ["CCCCc1ccc2c(n1)[C@@H](c1ccc(OC)cc1C[C@H](C)C(=O)O)[C@H](C(=O)O)[C@H]2c1ccc2c(c1)OCO2", "class 0"]
]}

State the result this test recorded for "O=C(O)CCCCC(=O)O" .
class 0

Could you kindly confirm the outcome this assay logged for "C1CCC(SSC2CCCCC2)CC1" ?
class 0

Please let me know the test result on file for "Cc1cc(=O)[nH]c(=S)[nH]1" .
class 0
